# System: DLD-1
# Protocol Text: NCI tumour cell line growth inhibition, 48 h
Counter-ions that a name gives are not always drawn. Activity calls are given as the source filed them. No stated cut-off is given here; in the data, active = GI50 up to about 1.1 µM and inactive = higher. Non-standard residues stand in square brackets, D forms with d. Residues, ends and D or L forms follow the SMILES beside them. ξ: configuration not given here. *: point of attachment. X18 = COC1=CC(=O)N(C(=O)C(O*)C(C)C)C1Cc1ccccc1; ξNMe2Val = CC(C)C(C(=O)*)N(C)C; NMeV = CN[CH](C(=O)O)C(C)C
The reply should be one of these categories: T (active), F (inactive)

These recorded examples may help you get a feel for the data.
S=c1sc2sc(=S)sc2s1 ... F
CC(=O)/C(=C\c1ccco1)C(=O)Nc1ccccc1 ... F
CNC(C)Cc1ccccc1OC (centres undefined) [METHOXYPHENAMINE HYDROCHLORIDE] ... F
O=C1C=C2S[C@H]3C[C@]2(C=C1Br)C1=C(N3)C(=O)c2[nH]cc3c2C1=NCC3 [(+)-DISCORHABDIN B] ... T
N[C@H](C(=O)O)[C@H]1ON=C(Cl)[C@@H]1O ... T
COC1=CC(=O)N(C(=O)C(OC(=O)C2CCCN2C(=O)C2CCCN2C(=O)C(C(C)C)N(C)C(=O)C(NC(=O)C(C(C)C)N(C)C)C(C)C)C(C)C)C1Cc1ccccc1 (centres undefined) (ξNMe2Val-V[NMeV]PP-X18; configuration not given here) ... T
O=C(N/C(=C\c1cccc([N+](=O)[O-])c1)c1nc2c(O)nc(S)nc2[nH]1)c1ccccc1 ... F
C=CCC1(CN(C)C)CC/C(=C\c2ccc3c(c2)OCO3)C1=O (centres undefined) ... F

Query block: // outcome(item) with item = CN(C)CC1CCC(CN(C)C)C1=O (centres undefined)
Result block: F

====

Listed here: items and their measured GI50.
# System: RPMI-8226
# Protocol Text: NCI tumour cell line growth inhibition, 48 h
The source made the active and inactive calls. No stated cut-off is given here; in the data, active = GI50 up to about 1.1 µM and inactive = higher.

Examples with their reported GI50 follow.
Cc1ccc(NC(=O)c2cc(S(=O)(=O)Nc3n[nH]c(=O)[nH]3)c(SSc3cc(Cl)c(C(=O)Nc4ccc(C)cc4)cc3S(=O)(=O)Nc3n[nH]c(=O)[nH]3)cc2Cl)cc1 ... > 100 µM (inactive)
O=c1cc(-c2ccccc2)oc2cc(Oc3nnnn3-c3ccccc3)ccc12 ... 51.4 µM (inactive)
[O-][S+](Cc1ccccc1)c1ccccc1Cn1cccc1 (stereo not given) ... > 100 µM (inactive)
NNC(=O)C1CCC(=O)N1S(=O)(=O)c1ccccc1 (stereo not given) ... > 100 µM (inactive)
COc1ccc(-c2cc(=O)c3cc(C)c(C)c(C(=O)O)c3o2)cc1 ... > 100 µM (inactive)

CCc1c(OC(C)=O)c2c(NC3OCC(OC(C)=O)C(OC(C)=O)C3OC(C)=O)nc(SC)nc2oc1=O (stereo not given) has a reported GI50 of > 100 µM (inactive)

The value of GI50 measured for the compound `CSC1=Nc2ccccc2N=C(c2ccc(Cl)cc2)C1` turned out to be 33.4 µM (inactive)

====

Listed next: entries and their corresponding GI50.
# System: CCRF-CEM
# Protocol Text: NCI tumour cell line growth inhibition, 48 h
The source made the active and inactive calls. Rule as the data show it: active = GI50 up to about 1.1 µM and inactive = higher.

Kindly note the recorded GI50 for COC(OC)C1OCC(n2cc(F)c(=O)[nH]c2=O)C1O (stereo unspecified) , which is > 100 µM (inactive)

Summary for this compound, O=C(Nc1cc(Cl)c(Cl)cc1Cl)C(=O)C(C(=O)c1ccc(Cl)c(Cl)c1)C1OC(=O)c2ccccc21 (stereo unspecified) : GI50 is 5.35 µM (inactive)

Reported GI50 ( CC1(C)COC(c2ccc(C(F)(F)F)cc2C(O)c2ccc3ccccc3c2)=N1 (stereo unspecified) ) = > 10 µM (inactive)

GI50 in this record for `COC1=C(OC)CCC(/C(C#N)=C/c2ccc(OC)c(OC)c2)=C1` : > 100 µM (inactive)

Entry `CO[C@H](c1ccccc1)[C@H](O)[C@](O)(c1ccccc1)P(=O)(OC)OC` , GI50 reported as > 100 µM (inactive)

Reported GI50 for C=C(C)C(=O)N1c2ccc(OC)cc2CC1C(=O)OCC (stereo unspecified) was > 100 µM (inactive)

====

# Test system: BT-549
# Protocol Text: NCI tumour cell line growth inhibition, 48 h
Active and inactive are the calls of the source. Rule as the data show it: active = GI50 up to about 1.1 µM and inactive = higher.
Measured Metric: GI50

In the examples that follow, each entry is paired with its recorded GI50.
Cc1ccc(S(=O)(=O)NC2C(=O)c3ccccc3C(=O)C2n2cnc3ccccc32)cc1 (stereo not given) ... 28.8 µM (inactive)
CN(C)CCNC(=O)C(C)(C)Oc1ccc(C(=O)c2ccc(Cl)cc2)cc1Cl ... 11.5 µM (inactive)
C/C(=N\c1ccc(Cl)cc1)c1ccncc1 ... > 100 µM (inactive)
CC(C)(C)NC(=O)N1N=C(c2ccccc2)C1c1ccccc1 (stereo not given) ... 29.9 µM (inactive)

Now examine the next entry.
Query `O=C(O)c1ccccc1C(=O)c1ccc2c(c1)Cc1ccccc1-2` yields GI50 of 78.9 µM (inactive)

====

# System: UACC-257
# Protocol Text: NCI tumour cell line growth inhibition, 48 h
Activity calls are given as the source filed them. No stated cut-off is given here; in the data, active = GI50 up to about 1.1 µM and inactive = higher.
Measured Metric: GI50

Worked examples follow.
CN(CC1(CO)CCC1)c1cc(Cl)nc(N)n1 ... > 100 µM (inactive)
COC1[C@@H](OC(C)=O)[C@@H](NC(=O)C(Cl)(Cl)Cl)C(I)[C@@H](N2C(=O)c3ccccc3C2=O)[C@H]1OC (stereo partly drawn) ... > 100 µM (inactive)
CC(SC1=CC(=O)c2c(Cl)ccc(O)c2C1=O)C(=O)O (stereo not drawn) ... 15.8 µM (inactive)
CCCCN(CCCC)C(=O)/C(CC(=O)c1cccc2ccccc12)=N\NC(=O)c1cc2ccccc2cc1O ... 21.1 µM (inactive)
COc1cc(CCCOC(=O)/C=C/c2ccc(O)c(O)c2)cc(O)c1O ... > 100 µM (inactive)

Query COC(=O)CC(NC(=O)OCc1ccccc1)C(C(C)=O)C(=O)OCc1ccccc1 (stereo not drawn) yields GI50 of > 31.6 µM (inactive)

Lab book: GI50 of CCc1c(OC(C)=O)c2c(NC3OCC(OC(C)=O)C(OC(C)=O)C3OC(C)=O)nc(SC)nc2oc1=O (stereo not drawn) noted as > 100 µM (inactive)

Looking up CC1=NN(C(=O)CC(=O)Nc2ccccc2F)C(=O)C1/N=N/c1ccccc1[N+](=O)[O-] (stereo not drawn) , I found its GI50 recorded as 97.3 µM (inactive)

====

# Test system: SNB-75
# Protocol Text: NCI tumour cell line growth inhibition, 48 h
Calls of active or inactive are those of the source. Cut-off read from the data, not from the text of the source: active = GI50 up to about 1.1 µM and inactive = higher.
Recorded GI50 by entry

Look over these answered cases.
CC1(CCCO)CCCCCCCCCC(C)(CCCO)C1=O (stereo not given) ... > 100 µM (inactive)
NNC(=O)C1CCC(=O)N1S(=O)(=O)c1ccccc1 (stereo not given) ... > 100 µM (inactive)
O=C1NC2c3c(I)sc(I)c3C(=O)C2O1 (stereo not given) ... 13.1 µM (inactive)
CSc1nc(SC)c2c(CN=[N+]=[N-])c(Br)n(Cc3ccccc3)c2n1 ... 51.3 µM (inactive)
COCOC1C=CCCCC2=CC(C)=C(CC1)O2 (stereo not given) ... > 100 µM (inactive)

Looking up `Cn1nc(N)nc1N=S(C)(C)=N` , I found its GI50 recorded as > 100 µM (inactive)

// recorded GI50 for `OCCCCCNc1nc(O)c2[nH]cnc2n1` : > 100 µM (inactive)

Entry `OC[C@H]1NC[C@@H](O)[C@@H](O)[C@H]1O` , GI50 reported as 9.29 µM (inactive)

The molecule listed as `CN(c1n[n+]2c(-c3ccccc3)csc2s1)c1n[n+]2c(-c3ccccc3)csc2s1` has a reported GI50 of > 100 µM (inactive)

====

# Test system: SF-295
# Protocol Text: NCI tumour cell line growth inhibition, 48 h
Active and inactive are the calls of the source. Cut-off read from the data, not from the text of the source: active = GI50 up to about 1.1 µM and inactive = higher.
Measured Metric: GI50

Answered cases to consult:
O=C(O)C1(C(=O)O)CC1(C(=O)O)C(=O)O ... > 100 µM (inactive)
O=c1cc(-c2ccccc2)oc2cc(Oc3nnnn3-c3ccccc3)ccc12 ... 46.2 µM (inactive)
COc1ccc2c(c1O)[C@@]13C=C(O)C(=O)C=C1[C@@H](C2)N(C)CC3 ... > 100 µM (inactive)
c1ccc(CNCCCNCCCCNCCCNCc2ccccc2)cc1 ... 15.1 µM (inactive)
COc1cc(C(CN)N(C)C)cc(OC)c1OC (stereo unspecified) ... > 100 µM (inactive)

For the next question, use this compound.
GI50 for SF-295 with input `O=C1/C(=C/c2ccc(Br)s2)NC(=S)N1CN1CCOCC1` equals 95.5 µM (inactive)

====

# System: HT-29
# Protocol Text: NCI tumour cell line growth inhibition, 48 h
Counter-ions that a name gives are not always drawn. Active and inactive are the calls of the source. Cut-off read from the data, not from the text of the source: active = GI50 up to about 1.1 µM and inactive = higher.
# reported GI50; entries follow

Here's what some known entries look like.
CCOc1ccc(-n2c(=O)n3c(Nc4ccc(Cl)cc4)nc4c(c(=O)n(C)c(=O)n4C)n3c2=O)cc1 ... 27.7 µM (inactive)
Fc1cccc(Cl)c1C1SCc2nc3cc4ccccc4cc3n21 (stereo not drawn) ... 89.1 µM (inactive)
CO[C@@H]1C=C[C@@]23c4cc5c(cc4CN(C[C@@H]2O)[C@H]3C1)OCO5 [(+)-HAEMANTHAMINE] ... 10.4 µM (inactive)
CC(C)(C)C1=Nc2c(Br)cc(C(C)(C)C)cc2C(C(F)(F)F)(C(F)(F)F)O1 ... 57.9 µM (inactive)
Brc1ccc(C2=NCSC(c3ccc(Br)cc3)=N2)cc1 ... 27.4 µM (inactive)
OCC1OC(c2ccccc2)CC1O (stereo not drawn) ... > 100 µM (inactive)

The recorded GI50 for COc1cc(C(CN)N(C)C)cc(OC)c1OC (stereo not drawn) is > 100 µM (inactive)

Measured GI50, `O=c1oc2ccc(Cl)cc2cc1-c1cn2ccccc2n1` : 17.7 µM (inactive)

// `CC1(C)CO[P@@](=S)(c2ccccn2)O[C@@H]1c1ccccc1` : GI50 value = > 100 µM (inactive)

Notebook: `Cc1ccc2c(n1)C(=O)C=CC2=O` , GI50 read as 13.9 µM (inactive)

Lab book: GI50 of `C/C(=N\c1ccc(Cl)cc1)c1ccncc1` noted as > 100 µM (inactive)

// field: GI50; key: `Cc1ccc2c(c1)S(=O)(=O)c1ccc3ccccc3c1N2` ; value = > 100 µM (inactive)

Please fill in: GI50 reported for [O-][S+]1CC[S+]([O-])CC[S+]([O-])CC1 (stereo not drawn) = > 100 µM (inactive)

The compound identified as CN1C[C@H](C(=O)N[C@]2(C)O[C@@]3(O)[C@@H]4CCCN4C(=O)[C@H](Cc4ccccc4)N3C2=O)C=C2c3cccc4[nH]cc(c34)C[C@H]21 [ERGOTAMINE TARTRATE] registered its GI50 at 23.9 µM (inactive)

Field GI50 (entry COC1/C=C/C(C)C(OC)CC(O)/C=C/C(C)C(C(C)C(OC)C(C)CCC(=O)C(C)C(C/C=C/N(C)C=O)OC)OC(=O)/C=C/C=C(\C)CC(OC)CC2=CC(=O)O[C@@H](C(C)C(OC)C1)[C@H]2O (stereo partly drawn) ) reads 0.0845 µM (active)

Data origin, for the record: ChEMBL document CHEMBL1201862
